src = ChEMBL document CHEMBL1142689

PROTOCOL_DESCRIPTION: Maximum concentration in brain of mice following peroral administration at 10 mg/kg; n=3
Type: ADME, organism-based
Set-up: dose 10 mg/kg, route oral
ASSAY_CONDITIONS: mouse, po
Documented Cmax across a set of molecules
# number only, unit ng/g dropped from output

// Cmax value for `O=C(Cc1ccc(OCc2ccccc2)cc1)Nc1cccc2nn(CCN3CCCC3)cc12` : 214

Cmax reading for `O=C(Cc1ccc(OCc2ccccc2)cc1)Nc1ccc2cnn(CCN3CCCC3)c2c1` : 177

Noted for `O=C(Cc1ccc(OCc2ccccc2)cc1)Nc1cccc2c1cnn2CCN1CCCC1` : its Cmax reads 464

The recorded Cmax for `O=C(Cc1ccc(OCc2ccccc2)cc1)Nc1ccc2c(cnn2CCN2CCCC2)c1` is 4260

---

TARGET_OR_SYSTEM: Melanin-concentrating hormone receptor 1 (Homo sapiens)
Sequence (Q99705 whole entry): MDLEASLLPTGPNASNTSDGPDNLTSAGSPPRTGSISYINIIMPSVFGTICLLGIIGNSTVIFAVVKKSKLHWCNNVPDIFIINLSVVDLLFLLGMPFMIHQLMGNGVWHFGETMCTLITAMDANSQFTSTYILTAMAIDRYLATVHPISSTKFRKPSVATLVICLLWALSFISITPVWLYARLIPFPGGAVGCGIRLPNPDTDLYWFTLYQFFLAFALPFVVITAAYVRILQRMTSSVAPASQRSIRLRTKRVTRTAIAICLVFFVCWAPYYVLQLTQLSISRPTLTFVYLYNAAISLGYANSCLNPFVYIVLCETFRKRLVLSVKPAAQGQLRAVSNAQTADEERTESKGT
PROTOCOL_DESCRIPTION: Inhibition of melanin concentrating hormone receptor 1-mediated [Ca2+] release in human neuronal IMR-32 cells
Type: functional, cell-based
READOUT_NAME: IC50 (µM)
Lab book: enter the figure in µM, no units written.

Solved cases (5 shown):
O=C(Cc1ccc(OCc2ccccc2)cc1)Nc1cccc2c1cnn2CCN1CCCC1; 0.071
O=C(Cc1ccc(OCc2ccccc2)cc1)Nc1ccc2cnn(CCN3CCCC3)c2c1; 0.011
O=C(CNCc1ccc(Oc2ccccc2)cc1)Nc1ccc2ncn(CCN3CCCC3)c2c1; 1.81
O=C(Cc1ccc(OCc2ccccc2)cc1)Nc1ccc2cn(CCN3CCCC3)nc2c1; 0.874
O=C(Cc1ccc(OCc2ccccc2)cc1)Nc1ccc2ccn(CCN3CCCC3)c2c1; 1.47

Now look at this entry.
`O=C(Cc1ccc(OCc2ccccc2)cc1)Nc1cccc2nn(CCN3CCCC3)cc12` yielded IC50 of 0.287

---

PROTOCOL_DESCRIPTION: Maximum concentration of the compound in brain of mice following peroral administration at 10 mg/kg; n=3
Assay type: ADME, organism-based
Parameters: dose 10 mg/kg, route oral
ASSAY_CONDITIONS: mouse, po
READOUT_NAME: Cmax
The number alone won't do; follow it with the unit.

Consider `O=C(Cc1ccc(OCc2ccccc2)cc1)Nc1ccc2ncn(CCN3CCCC3)c2c1` . Its measured Cmax is 54.4 ng/g

---

PROTOCOL_DESCRIPTION: Concentration in brain of mice,1 hour after administration of final dose at 30 mg/kg, twice a day
Type: ADME, organism-based
Set-up: dose 30 mg/kg
ASSAY_CONDITIONS: mouse, read-out: Cmax
READOUT_NAME: concentration at 1 h (ng/mL)
The answer is to be given in ng/mL; state only the numeric part.

The reported concentration at 1 h of the compound `O=C(Cc1ccc(OCc2ccccc2)cc1)Nc1ccc2cnn(CCN3CCCC3)c2c1` was 233

---

PROTOCOL_DESCRIPTION: Concentration in plasma of mice,17 hours after administration of final dose at 10 mg/kg, twice a day
Format: ADME, organism-based
Set-up: dose 10 mg/kg
ASSAY_CONDITIONS: mouse, read-out: Cmax
READOUT_NAME: concentration at 17 h (ng/mL)
The response must be a number in ng/mL with no trailing unit.

`O=C(Cc1ccc(OCc2ccccc2)cc1)Nc1ccc2cnn(CCN3CCCC3)c2c1` yielded concentration at 17 h of 0.39
